Collected from the literature: IC50 of various molecules toward Beta-secretase 1 (Homo sapiens, UniProt P56817).
metric-name: IC50 (nM)

{"molecule": "CCCCNC(=O)[C@H](C)C[C@H](O)[C@@H]1Cc2cccc(c2)OCCCCS(=O)(=O)C[C@@H](C)C(=O)N1", "limit-qualifier": "=", "measurement": 110}
{"molecule": "C[C@@H]1CCCCCCCCC(=O)N(C)[C@@H](C)C(=O)N[C@H]([C@H](O)CNC2(c3cc(C(C)(C)C)ccn3)CC2)C1", "limit-qualifier": "=", "measurement": 2}
{"molecule": "COc1cc2oc(-c3ccc(OC)c(-c4c(OC)cc(O)c5c(=O)cc(-c6ccc(O)cc6)oc45)c3)cc(O)c-2c(=O)c1", "limit-qualifier": ">", "measurement": 10000}
{"molecule": "O=C1OC(c2ccccc2)C(=O)C1SCCc1ccccc1 (configuration not stated)", "limit-qualifier": ">", "measurement": 200000}
{"molecule": "CCCN(CCC)C(=O)c1cccc(C(=O)N[C@@H](Cc2cc(F)cc(F)c2)[C@@H](O)C[C@@H](C)C(=O)NCC(C)C)c1", "limit-qualifier": "=", "measurement": 30}
{"molecule": "CC(C)c1ccc2c(c1)[C@@H](NC[C@@H](O)[C@@H]1Cc3cccc(c3)OCCCCCC(=O)N(C)[C@@H](C)C(=O)N1)CC(C)(C)O2", "limit-qualifier": "=", "measurement": 2}
{"molecule": "C[C@H]1C(=O)N[C@H]([C@H](O)CNC2(c3cccc(Br)c3)CC2)Cc2cccc(c2)OCCCCCC(=O)N1C", "limit-qualifier": "=", "measurement": 170}

====

Collected from the literature: pIC50 of various compounds toward Beta-secretase 1 (Homo sapiens, UniProt P56817).
pIC50: −log10 of the molar value.

{"smiles-repr": "CC(C)(C)Cc1cc(C(C)(C)NC[C@@H](O)[C@@H]2Cc3cccc(c3)OCCCCOc3cncc(c3)C(=O)N2)no1", "pIC50": 8.35}
{"smiles-repr": "C#C[C@H](C)Oc1cnc(C(=O)Nc2ccc(F)c([C@@]3(C)N=C(N)S[C@@]4(C(F)F)C[C@@H]34)c2)c(C)c1", "pIC50": 7.36}
{"smiles-repr": "COc1ccccc1/C=C/C(=O)c1ccc(O)cc1O", "pIC50": 5.58}
{"smiles-repr": "CCCc1cc(CNC[C@@H](O)[C@@H]2C[C@H](C)CCCCCCCNc3cc(COC)cc(c3)C(=O)N2)no1", "pIC50": 6.24}
{"smiles-repr": "COCc1cc2cc(c1)C(=O)O[C@@H](CNC1(c3cccc(C(C)C)c3)CC1)[C@@H](N)Cc1cccc(c1)OCCCCN2", "pIC50": 5.19}
{"smiles-repr": "CC(C)c1cccc(CNC[C@@H](O)[C@@H]2Cc3cccc(c3)OCCCCS(=O)(=O)C[C@@H](C)C(=O)N2)c1", "pIC50": 7.54}
{"smiles-repr": "COCc1cc2cc(c1)C(=O)N[C@H]([C@H](O)CN)Cc1cccc(c1)OCCCCN2", "pIC50": 4.89}

====

Collected from the literature: pIC50 of various molecules toward Beta-secretase 1 (Homo sapiens, UniProt P56817).
pIC50: −log10 of the molar value.
Use met when the recorded pIC50 is no lower than 7; use not met when it is lower.

{"molecule": "CC(C)c1cccc(CNC[C@@H](O)[C@@H]2C[C@H](C)C/C=C\\CCCCNc3cc(cc(Cl)n3)C(=O)N2)c1", "label-value": "met"}
{"molecule": "C#C[C@H](C)Oc1cnc(C(=O)Nc2cc(F)c(F)c([C@@]3(C)N=C(N)S[C@@]4(COC)C[C@H]43)c2)c(C)n1", "label-value": "met"}
{"molecule": "CCC(C)C1NC(=O)C(SCC(=O)NCc2ccc3c(c2)OCO3)C1=O (centres undefined)", "label-value": "not met"}
{"molecule": "CC(C)c1cccc(CNC[C@@H](O)[C@@H]2C[C@H](C)CCCCCCCCC(=O)N3CCCC[C@H]3C(=O)N2)c1", "label-value": "not met"}
{"molecule": "CCNc1cc(C(=O)N[C@@H](Cc2ccccc2)[C@H](O)CNC(C)(C)CCCC(C)C)cc(N2CCCCS2(=O)=O)c1", "label-value": "met"}
{"molecule": "COCc1cc2cc(c1)C(=O)N[C@H]([C@H](O)CNCCc1ccncc1)C[C@H](C)CCCCCCCN2", "label-value": "not met"}
{"molecule": "C#C[C@H](C)Oc1cnc(C(=O)Nc2cc(F)c(F)c([C@@]3(C)N=C(N)S[C@@]4(CF)C[C@H]43)c2)c(C)n1", "label-value": "met"}
{"molecule": "COCc1cc2cc(c1)C(=O)N[C@H]([C@H](O)CN[C@H]1CC(C)(C)Oc3ccc(C(C)C)cc31)Cc1cccc(c1)OCCCCN2", "label-value": "met"}
{"molecule": "C[C@@H]1CCCCCCCCC(=O)N(C)[C@@H](C)C(=O)N[C@H]([C@H](O)CNC(C)(C)c2cccc(Br)c2)C1", "label-value": "not met"}
{"molecule": "O=c1cc(O)cc2oc(-c3ccc(O)c(-c4c(O)cc5oc(-c6ccc(O)cc6)cc(=O)c5c4O)c3)cc(O)c1-2", "label-value": "not met"}

====

Collected from the literature: IC50 of various molecules toward Beta-secretase 1 (Homo sapiens, UniProt P56817).
Criterion: IC50 strictly less than 300 nM. Met: yes. Not met: no.

{"molecule": "CCCCNC(=O)[C@H](C)C[C@H](O)[C@@H]1Cc2ccc(O)c(c2)Cc2ccccc2OCC(=O)N[C@@H](C)C(=O)N1", "label-value": "yes"}
{"molecule": "CC(C)c1cccc(CNC[C@@H](O)[C@@H]2C[C@H](C)CCCCCCCOc3cc(cc(Cl)n3)C(=O)N2)c1", "label-value": "yes"}
{"molecule": "CC(=O)c1cc2cc(c1)C(=O)N[C@H]([C@H](O)CNC1(c3cccc(C(C)C)c3)CC1)Cc1cccc(c1)OCCCCN2", "label-value": "yes"}
{"molecule": "COc1ccc(-c2nc(SCC(=O)Nc3nc(-c4ccccc4)cs3)[nH]c(=O)c2C#N)cc1", "label-value": "no"}
{"molecule": "CCc1cn2c3c(cc(C(=O)N[C@@H](Cc4ccccc4)[C@H](O)CNC4CCOCC4)cc13)N(C)S(=O)(=O)CC2", "label-value": "yes"}
{"molecule": "C[C@@H]1CCCCCCCCC(=O)N(C)[C@@H](C)C(=O)N[C@H]([C@H](O)CN[C@@H](C)c2cccc(Br)c2)C1", "label-value": "yes"}
{"molecule": "CC(C)(NC[C@@H](O)[C@@H]1Cc2cccc(c2)OCCCCOc2cncc(c2)C(=O)N1)c1cccc(Br)c1", "label-value": "yes"}
{"molecule": "CC(C)c1cccc(C(C)(C)NC[C@@H](O)[C@@H]2Cc3cccc(c3)CCCCNc3cccc(c3)C(=O)N2)c1", "label-value": "yes"}
{"molecule": "C[C@@H]1CCCCCCCCS(=O)(=O)C[C@@H](C)C(=O)N[C@H]([C@H](O)CNC2(c3cccc(C(C)(C)C)c3)CC2)C1", "label-value": "yes"}
{"molecule": "O=C1CN(Cc2ccccc2)C(=O)C1SCc1cccc(C(F)(F)F)c1 (stereo not drawn)", "label-value": "no"}
{"molecule": "CC(C)c1cccc(C(C)(C)NC[C@@H](O)[C@@H]2Cc3cccc(c3)OCCCCNc3cccc(n3)C(=O)N2)c1", "label-value": "no"}
{"molecule": "CC(C)c1ccnc(CNC[C@@H](O)[C@@H]2Cc3cccc(c3)OCCCCOc3cccc(c3)C(=O)N2C)c1", "label-value": "no"}
{"molecule": "C[C@@H]1CCCCCCCCS(=O)(=O)C[C@@H](C)C(=O)N[C@H]([C@H](O)CN[C@@H](C)c2cc(CC(C)(C)C)on2)C1", "label-value": "yes"}
{"molecule": "CC(C)Cc1cncc(C(C)(C)NC[C@@H](O)[C@@H]2C[C@H](C)CCCCCCCCC(=O)N(C)[C@@H](C)C(=O)N2)c1", "label-value": "yes"}
{"molecule": "COc1ccc2cc1OCCCCNc1cc(CO)cc(c1)C(=O)N[C@H]([C@H](O)CNCc1cccc(C(C)C)c1)C2", "label-value": "no"}
{"molecule": "C[C@@H]1CC/C=C/CCCNc2cc(CO)cc(c2)C(=O)N[C@H]([C@H](O)CNCc2cc(CC(C)(C)C)on2)C1", "label-value": "yes"}
{"molecule": "CCCCNC(=O)[C@H](C)C[C@H](O)[C@@H]1C[C@H](C)CCCCCCCCS(=O)(=O)C[C@@H](C)C(=O)N1", "label-value": "no"}
{"molecule": "O=C(/C=C/c1cc(O)ccc1O)c1ccc(O)cc1O", "label-value": "no"}
{"molecule": "O=C1OC(c2ccccc2)C(=O)C1Sc1ccccc1 (stereo not drawn)", "label-value": "no"}
{"molecule": "COc1ccc2cc1OCCCCNc1cc(cc(Cl)n1)C(=O)N[C@H]([C@H](O)CNCc1cccc(C(C)C)c1)C2", "label-value": "yes"}
{"molecule": "CC(C)(C)c1ccnc(C2(NC[C@@H](O)[C@@H]3Cc4cccc(c4)CCCCNc4cc(cc(-c5ncco5)c4)C(=O)N3)CC2)c1", "label-value": "yes"}
{"molecule": "CC(C)c1cccc(CNC[C@@H](O)[C@@H]2C[C@H](C)CCCCCCCN(C)c3cc(ccn3)C(=O)N2)c1", "label-value": "no"}
{"molecule": "CC(C)c1ccnc(CNC[C@@H](O)[C@@H]2Cc3cccc(c3)CCCCOc3cc(cc(N4CCCC4=O)c3)C(=O)N2)c1", "label-value": "yes"}
{"molecule": "CC(C)c1cccc(CNC[C@@H](O)[C@@H]2Cc3cccc(c3)CCCCOc3cncc(c3)C(=O)N2)c1", "label-value": "no"}
{"molecule": "COCc1cc2cc(c1)C(=O)N[C@H]([C@H](O)CNC1(c3cccc(C(C)C)c3)CC1)Cc1cccc(c1)OCCCO2", "label-value": "yes"}
{"molecule": "Cc1cc2cc(n1)NCCCCc1cccc(c1)C[C@@H]([C@H](O)CNCc1cc(C(C)(C)C)ccn1)NC2=O", "label-value": "yes"}
{"molecule": "Cc1cc2cc(n1)OCCCCc1cc(cc(Cl)c1O)C[C@@H]([C@H](O)CNC(C)(C)c1cccc(C(C)C)c1)NC2=O", "label-value": "yes"}
